rhesus TNF neutralization IC50 (L929 bioassay) overview
Molecular target: Rhesus/Macaque TNF (rhesus/macaque, UniProt P48094 77-233)
Sequence (P48094 77-233 limits assumed): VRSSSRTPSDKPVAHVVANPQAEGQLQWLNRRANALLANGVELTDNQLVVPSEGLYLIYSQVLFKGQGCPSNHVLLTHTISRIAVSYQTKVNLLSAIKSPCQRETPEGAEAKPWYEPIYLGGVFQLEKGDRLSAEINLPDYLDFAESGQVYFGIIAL
Assay: cell-based or functional assay
parameterMeasured: rhesus TNF neutralization IC50 (L929 bioassay)

# binder, reportedResult
records = [
    ("hMAK195-AM21 (antibody, V domains shown) VH: EVQLVESGGGLVQPGGSLRLSCAASGFTFSNYGVTWVRQAPGKGLEWVSMIWADGSTHYASSVKGRFTISRDNSKNTLYLQMNSLRAEDTAVYYCAREWQHGPVAYWGQGTLVTVSS VL: DIQMTQSPSSLSASVGDRVTITCRASQLVSSAVAWYQQKPGKAPKLLIYWASARHTGVPSRFSGSGSGTDFTLTISSLQPEDFATYYCQQHYKTPFTFGQGTKLEIKR", "0.09 nM"),
    ("hMAK195-AM11 (antibody, V domains shown) VH: EVQLVESGGGLVQPGGSLRLSCAASGFTFSNYGVNWVRQAPGKGLEWVSMIAADGFTDYASSVKGRFTISRDNSKNTLYLQMNSLRAEDTAVYYCAREWHHGPVAYWGQGTLVTVSS VL: DIQMTQSPSSLSASVGDRVTITCKASQAVSSAVAWYQQKPGKAPKLLIYWASTRHTGVPSRFSGSGSGTDFTLTISSLQPEDFATYYCQQHYSTPFTFGQGTKLEIKR", "> 25 nM"),
    ("hMAK195-AM17 (antibody, V domains shown, Full-length IgG; also called rHC22; hMAK195 rHC22) VH: EVQLVESGGGLVQPGGSLRLSCAASGFTFSNYGVTWVRQAPGKGLEWVSMIWADGSTDYADTVKGRFTISRDNSKNTLYLQMNSLRAEDTAVYYCAREWQHGPVAYWGQGTLVTVSS VL: DIQMTQSPSSLSASVGDRVTITCKASQAVSSAVAWYQQKPGKAPKLLIYWASTRHTGVPSRFSGSGSGTDFTLTISSLQPEDFATYYCQQHYSTPFTFGQGTKLEIKR", "> 25 nM"),
]
